Molecular target: Schistosoma mansoni thioredoxin glutathione reductase (TGR)
Test: qHTS Assay for the Inhibitors of Schistosoma Mansoni Peroxiredoxins; also: nearly all actives have a fitted effect of over 60% in size
Conditions: purified TGR, DTNB reduction, TNB absorbance 405 nm; series mostly up to 114 µM
In all, about 360,000 compounds went through this assay and about 11,000 (3.1%) were called active. Inconclusive results (about 4%) are left out. Calls follow the shape of the dose curve; as a rule, active = well fitted inhibition curve with a large enough effect; inconclusive = small, poorly fitted or top-dose-only effect; inactive = no such curve, though single readings can be large or run the other way. For the sample, actives were picked, then their nearest neighbours and some compounds at random.
Hi! Could you answer with just one of these? yes (1) (active), no (0) (inactive)

Query: recorded result category for COC(=O)c1cccc(N(C(=O)c2ccco2)C(C(=O)NC2CCCC2)c2ccco2)c1 (centres undefined) in this test
yes (1)

Please do the same for CCCCN(CC)C(=O)c1c[nH]c2ccc(S(=O)(=O)Nc3cccc(OC)c3)cc2c1=O as well.
no (0)

Please do the same for COc1cccc(C(C(=O)NC2CCCC2)N(C(=O)c2ccco2)c2cccc(C(C)=O)c2)c1OC (centres undefined) as well.
no (0)

Please do the same for Cc1ccccc1-n1nc(C)c2c1N=C1C(Cl)=CC(Cl)=CN1C2c1ccc(C(=O)O)cc1 (centres undefined) as well.
yes (1)

Attribution: PubChem BioAssay AID485364
